- Test system: OVCAR-4
- test: NCI tumour cell line growth inhibition, 48 h
The source made the active and inactive calls. Cut-off read from the data, not from the text of the source: active = GI50 up to about 1.1 µM and inactive = higher.
measure-name: GI50

Worked cases, answers included:
Clc1cc2nsnc2c(Cl)n1    17.1 µM (inactive)
COc1cc(OC)cc(Oc2nc3ccc(C(F)(F)F)cc3nc2-c2ccccc2)c1    > 100 µM (inactive)
Cc1ccc2c(c1)C(=O)C1(C2)Cc2ccc(C)cc2C1=O    > 100 µM (inactive)

Query GI50 for CC1(C)NC(C)(C)/C(=N\O)C(=NO)/C1=N/O
> 100 µM (inactive)

Supply GI50 value. Item: COc1cccc(-c2nc(-c3cnccn3)n(Cc3ccccc3)n2)c1
21.6 µM (inactive)

Tell me GI50 reported for OC[P+](CO)(CO)C12CC3CC(CC(C3)C1)C2
> 48.3 µM (inactive)

For the compound O=S(=O)(O)c1ccc2cc(/N=N\c3cc(S(=O)(=O)O)c4cccnc4c3O)ccc2c1 , give its reported GI50.
> 100 µM (inactive)

Assign GI50 to the following record: Oc1ccc(/C=N/c2ccccc2O)cc1
> 100 µM (inactive)

Specify measured GI50 for CC(C)(C)OC(=O)CC(NC(=O)OC(C)(C)C)C(=O)NC(C(=O)O)C(O)c1ccccc1 (stereo unspecified) .
> 100 µM (inactive)

Item O=C1C(N2CCNCC2)=C(Cl)C(=O)c2ncccc21 : provide GI50
> 10 µM (inactive)

For the compound CC(C)OC(=O)OCSc1ccccc1/N=C/c1cccc([N+](=O)[O-])c1 , report GI50.
> 10 µM (inactive)
